B1: library; a variant is named by its letters at N, in order (parent)
chain: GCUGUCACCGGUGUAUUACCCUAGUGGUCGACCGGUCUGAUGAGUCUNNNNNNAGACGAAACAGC

# Variants of: B1
# Assay text: FACS-Seq fitted mean relative fluorescence mCherry/BFP with ligand (log10 relative fluorescence); ligand: hypoxanthine (xanthine aptamer); ligand concentration (+) FACS-Seq: 5 mM; higher = higher reporter protein expression
# Condition context: HEK293T, ligand present: yes
# label = met if FACS-Seq fitted mean (log10) >= 0.6 else not met

AAGUUA: not met

Qu. Form field: FACS-Seq fitted mean (log10) at least 0.6? Entry: UAACGC
Ans. not met

Qu. Form field: FACS-Seq fitted mean (log10) at least 0.6? Entry: UAAUUC
Ans. met

Qu. Form field: FACS-Seq fitted mean (log10) at least 0.6? Entry: GUUAGA
Ans. met

Qu. Form field: FACS-Seq fitted mean (log10) at least 0.6? Entry: CAAAGU
Ans. not met

Qu. Form field: FACS-Seq fitted mean (log10) at least 0.6? Entry: AAUCUG
Ans. met

Qu. Form field: FACS-Seq fitted mean (log10) at least 0.6? Entry: UAGCAA
Ans. not met

Qu. Form field: FACS-Seq fitted mean (log10) at least 0.6? Entry: ACGGGG
Ans. not met

Qu. Form field: FACS-Seq fitted mean (log10) at least 0.6? Entry: AUCCAA
Ans. met

Qu. Form field: FACS-Seq fitted mean (log10) at least 0.6? Entry: AAUAGA
Ans. not met

The reported measurements were obtained from the supplement of paper PMC6757056.
